- measured-target: B-Raf(h) (Homo sapiens, UniProt P15056)
- Sequence (P15056 whole entry): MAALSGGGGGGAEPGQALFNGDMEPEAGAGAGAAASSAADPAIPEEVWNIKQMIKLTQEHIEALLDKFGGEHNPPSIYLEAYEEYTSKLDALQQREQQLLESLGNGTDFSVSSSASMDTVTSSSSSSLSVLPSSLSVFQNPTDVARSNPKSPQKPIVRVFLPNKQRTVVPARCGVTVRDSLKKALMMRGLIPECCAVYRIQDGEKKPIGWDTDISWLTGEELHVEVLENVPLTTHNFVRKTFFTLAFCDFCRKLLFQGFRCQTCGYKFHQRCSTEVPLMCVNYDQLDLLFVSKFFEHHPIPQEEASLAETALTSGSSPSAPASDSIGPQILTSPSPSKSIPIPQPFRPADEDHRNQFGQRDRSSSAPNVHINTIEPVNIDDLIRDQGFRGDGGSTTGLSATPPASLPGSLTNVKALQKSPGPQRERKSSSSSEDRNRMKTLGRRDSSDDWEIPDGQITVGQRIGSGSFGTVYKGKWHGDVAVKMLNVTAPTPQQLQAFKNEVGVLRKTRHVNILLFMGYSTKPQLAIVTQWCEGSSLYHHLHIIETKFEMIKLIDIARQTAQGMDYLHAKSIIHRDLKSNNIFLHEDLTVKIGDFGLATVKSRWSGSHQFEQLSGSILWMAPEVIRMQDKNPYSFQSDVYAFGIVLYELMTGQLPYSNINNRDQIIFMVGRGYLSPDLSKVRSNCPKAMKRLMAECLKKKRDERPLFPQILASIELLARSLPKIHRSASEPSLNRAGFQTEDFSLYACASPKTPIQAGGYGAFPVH
- procedure-summary: B-Raf kinase assay (Eurofins Panlabs, radiometric)
- Type: biochemical
- Design: purchased Eurofins Panlabs Inc. (contract assay service)
- study-conditions: IC50 B-Raf, 120 μM ATP; Table 8
pIC50: −log10 of the molar value.
assay-endpoint: pIC50

Prompt: What does the data say about its pIC50? Entry: CC(C)(C)c1nc(-c2cccc(NS(=O)(=O)c3c(F)cccc3F)c2F)c(-c2ccnc(Nc3ccccc3)n2)s1 [Compound 1]
Completion: 7.00 to 8.00

* * *

Listing of recorded IC50 by entry.
- measured-target: B-Raf(h) (Homo sapiens, UniProt P15056)
- procedure-summary: B-Raf kinase assay (Eurofins Panlabs, radiometric)
- Type: biochemical
- Set-up: purchased Eurofins Panlabs Inc. (contract assay service)
- study-conditions: 120 μM ATP; Table 8; read-out: IC50 B-Raf

{"columns": ["mol-smiles", "IC50"],
 "data": [
  ["CC(C)(C)c1nc(-c2cccc(NC(=O)C(=O)c3c(F)cccc3F)c2F)c(-c2ccnc(Nc3ccccc3)n2)s1", "500 to 5000 nM"],
  ["CCOC(=O)Cc1nc(-c2cccc(NS(=O)(=O)c3c(F)cccc3F)c2F)c(-c2ccnc(Nc3ccccc3)n2)s1", "10 to 100 nM"],
  ["CNC(=O)Cc1nc(-c2cccc(NS(=O)(=O)c3c(F)cccc3F)c2F)c(-c2ccnc(Nc3ccccc3)n2)s1", "10 to 100 nM"],
  ["CC(C)(C)OC(=O)Nc1cccc(-c2nc(C(C)(C)C)sc2-c2ccnc(Nc3ccccc3)n2)c1F", "500 to 5000 nM"]
]}

Please turn your attention to the following entry.
Prompt: Reported IC50, compound O=S(=O)(Nc1cccc(-c2nc(CCO)sc2-c2ccnc(Nc3ccccc3)n2)c1F)c1c(F)cccc1F : ____
Completion: 10 to 100 nM

* * *

IC50 overview
- measured-target: LIMK1(h) (Homo sapiens, UniProt P53667)
- Sequence (P53667 whole entry): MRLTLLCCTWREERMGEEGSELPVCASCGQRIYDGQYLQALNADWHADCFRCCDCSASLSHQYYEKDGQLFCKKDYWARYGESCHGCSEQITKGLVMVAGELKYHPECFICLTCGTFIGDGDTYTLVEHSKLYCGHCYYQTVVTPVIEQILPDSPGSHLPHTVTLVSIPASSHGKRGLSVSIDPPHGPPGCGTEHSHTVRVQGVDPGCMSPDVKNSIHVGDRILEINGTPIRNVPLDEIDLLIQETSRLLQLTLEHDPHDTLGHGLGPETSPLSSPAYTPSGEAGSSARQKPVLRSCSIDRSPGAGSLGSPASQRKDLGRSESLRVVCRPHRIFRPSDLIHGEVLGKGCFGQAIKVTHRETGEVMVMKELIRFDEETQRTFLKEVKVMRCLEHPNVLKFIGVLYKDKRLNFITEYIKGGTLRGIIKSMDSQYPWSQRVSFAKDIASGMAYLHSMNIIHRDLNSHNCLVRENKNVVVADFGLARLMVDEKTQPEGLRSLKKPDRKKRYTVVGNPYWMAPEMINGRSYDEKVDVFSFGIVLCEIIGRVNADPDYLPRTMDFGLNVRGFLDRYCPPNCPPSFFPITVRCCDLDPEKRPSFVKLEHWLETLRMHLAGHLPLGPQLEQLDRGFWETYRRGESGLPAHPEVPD
- procedure-summary: LIMK1 kinase assay (Eurofins Panlabs, radiometric)
- Type: biochemical
- Parameters: purchased Eurofins Panlabs Inc. (contract assay service)
- study-conditions: 15 μM ATP; Table 8; read-out: IC50 LIMK1

{"columns": ["mol-smiles", "IC50"],
 "data": [
  ["O=S(=O)(Nc1cccc(-c2nc(CCO)sc2-c2ccnc(Nc3ccccc3)n2)c1F)c1c(F)cccc1F", "< 10 nM"]
]}

Now look at this entry.
Prompt: Entry CC(C)(C)c1nc(-c2cccc(NC(=O)C(=O)c3c(F)cccc3F)c2F)c(-c2ccnc(Nc3ccccc3)n2)s1 : reported IC50 = ?
Completion: 500 to 5000 nM

* * *

- System: P-MEK/Total MEK
- procedure-summary: Western blot MEK1 phosphorylation, HL-60
- Type: cell-based
- study-conditions: Homo sapiens, HL-60, 2 h, read-out: IC50 P-MEK/Total MEK
pIC50: −log10 of the molar value.
assay-endpoint: pIC50

Prompt: I'd like to know its pIC50. The molecule in question is CNC(=O)Cc1nc(-c2cccc(NS(=O)(=O)c3c(F)cccc3F)c2F)c(-c2ccnc(Nc3ccccc3)n2)s1 [9 (Na)]
Completion: < 6.00

* * *

- measured-target: recombinant human LIMK2 fragment 1-638 (Homo sapiens)
- Construct: recombinant human LIMK2 fragment 1-638; 6His (N)
- Sequence (P53671 whole entry, the tested form may be a part): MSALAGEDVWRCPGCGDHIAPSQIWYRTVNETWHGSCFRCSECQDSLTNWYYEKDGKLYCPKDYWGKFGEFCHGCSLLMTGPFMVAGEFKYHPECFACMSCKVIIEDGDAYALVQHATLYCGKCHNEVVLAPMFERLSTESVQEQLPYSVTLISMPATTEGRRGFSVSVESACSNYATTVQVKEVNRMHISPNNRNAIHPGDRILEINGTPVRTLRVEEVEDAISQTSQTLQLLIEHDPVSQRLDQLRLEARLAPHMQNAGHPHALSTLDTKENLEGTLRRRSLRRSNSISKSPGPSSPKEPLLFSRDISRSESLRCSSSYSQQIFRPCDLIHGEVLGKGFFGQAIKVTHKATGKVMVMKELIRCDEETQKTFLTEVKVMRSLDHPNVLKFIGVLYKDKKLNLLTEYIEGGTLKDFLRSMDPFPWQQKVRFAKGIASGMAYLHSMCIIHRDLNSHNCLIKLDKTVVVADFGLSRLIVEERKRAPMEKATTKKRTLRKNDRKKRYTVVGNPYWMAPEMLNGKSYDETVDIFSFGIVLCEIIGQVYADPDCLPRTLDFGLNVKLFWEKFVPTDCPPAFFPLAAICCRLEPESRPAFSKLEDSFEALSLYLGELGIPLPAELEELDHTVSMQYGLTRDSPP
- procedure-summary: LIMK2 kinase assay (Compound 1), anti-phospho-Ser3-cofilin detection
- study-conditions: 360 μM ATP; GST-cofilin 1 substrate; chemiluminescence detection
assay-endpoint: IC50

Prompt: Quick one: IC50 of CC(C)(C)c1nc(-c2cccc(NS(=O)(=O)c3c(F)cccc3F)c2F)c(-c2ccnc(Nc3ccccc3)n2)s1 [Compound 1] ?
Completion: 100 to 500 nM
